target: CDK2 (Homo sapiens, UniProt P24941); construct: HEK293 clonal lines with CRISPR KI HiBiT tag on CDK2 proteins; host or cells: HEK293 clonal line, CRISPR knock-in HiBiT-CDK2, stably expressing LgBiT; assay: HiBiT assay (CDK2 degradation); assay type: cell-based; conditions: HEK293 clonal line with CRISPR KI HiBiT tag on CDK2, 24 hours, HiBiT Lysis Reagent
property.name: Dmax

Dmax measured on O=C1CCC(N2Cc3ccc(CNC(=O)OC[C@H]4CCCO4)cc3C2=O)C(=O)N1 (some centres unmarked) [Compound 29] = ≤ 10%

Dmax measured on O=C1CCC(N2Cc3ccc(CNC(=O)OCC4CCc5ccccc54)cc3C2=O)C(=O)N1 (centres unmarked) [Compound 18] = 10 to 50%

Dmax measured on O=C1CCC(N2Cc3ccc(CNC(=O)OCC4(c5ccccc5)CC(F)(F)C4)cc3C2=O)C(=O)N1 (centres unmarked) [Compound 38] = 10 to 50%

Dmax measured on O=C1CCC(N2Cc3ccc(CNC(=O)OCC4CC5(CCC5)C4)cc3C2=O)C(=O)N1 (centres unmarked) [Compound 2] = 50 to 80%

Dmax measured on O=C1CCC(N2Cc3ccc(CNC(=O)OC4CCc5ccccc5C4)cc3C2=O)C(=O)N1 (centres unmarked) [Compound 17] = 10 to 50%

Dmax measured on CN1C(=O)CCC1COC(=O)NCc1ccc2c(c1)C(=O)N(C1CCC(=O)NC1=O)C2 (centres unmarked) [Compound 36] = ≤ 10%

Dmax measured on O=C1CCC(N2Cc3ccc(CNC(=O)OCC4CC45CCOCC5)cc3C2=O)C(=O)N1 (centres unmarked) [Compound 52] = 10 to 50%

Dmax measured on O=C1CCC(N2Cc3ccc(CNC(=O)OCCOC4COC4)cc3C2=O)C(=O)N1 (centres unmarked) [Compound 33] = 10 to 50%

---

pKi: −log10 of the molar value.
// pKi collected for CRBN-DDB1 (Homo sapiens)

# example entries with known answers
# molecule, pKi
records = [
    ("O=C1CCC(N2Cc3ccc(CNC(=O)OCC4CC5(C4)CC54CCC4)cc3C2=O)C(=O)N1 (stereo not shown)", "≥ 7.00"),
    ("O=C1CCC(N2Cc3ccc(CNC(=O)OC[C@@H]4C[C@@H]5C=C[C@H]4CC5)cc3C2=O)C(=O)N1 (mixture of isomers)", "≥ 7.00"),
    ("CC1(COC(=O)NCc2ccc3c(c2)C(=O)N(C2CCC(=O)NC2=O)C3)CCOCC1 (stereo not shown)", "6.00 to 7.00"),
]

Here is the next item to consider.
pKi value, target or system CRBN-DDB1 (Homo sapiens), for O=C1CCC(N2Cc3ccc(CNC(=O)OCC4CC45CCC(F)(F)CC5)cc3C2=O)C(=O)N1 (stereo not shown) : 6.00 to 7.00

---

// Ki collected for CRBN-DDB1 (Homo sapiens)

# example entries with known answers
# molecule, system, Ki
measured = [
    ("Cc1cc(CNC(=O)OCC2CC3(CCC3)C2)cc2c1CN(C1CCC(=O)NC1=O)C2=O (stereo not drawn)", "CRBN-DDB1 (Homo sapiens)", "≤ 100 nM"),
    ("CC(C)(CCOC(=O)NCc1ccc2c(c1)C(=O)N(C1CCC(=O)NC1=O)C2)C1CC1 (stereo not drawn)", "CRBN-DDB1 (Homo sapiens)", "≤ 100 nM"),
]

Ki value, target or system CRBN-DDB1 (Homo sapiens), for CS(=O)(=O)N1CC(COC(=O)NCc2ccc3c(c2)C(=O)N(C2CCC(=O)NC2=O)C3)C1 (stereo not drawn) : 100 to 1000 nM
